target_under_test: T1, His-NinH wt (Bacteriophage lambda (cI857 Sam7), UniProt P03771 1-68, A15T)
T1 sequence: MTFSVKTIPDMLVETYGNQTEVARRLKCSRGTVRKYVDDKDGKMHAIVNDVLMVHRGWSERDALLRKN
protocol_summary: EMSA; sub-micromolar; PBS; MST: PBS pH 7.4 + 0.05% Tween-20, 22 C; anisotropy: 6.7 mM Tris-HCl pH 8.0, 3.3 nM (so in the source) sodium acetate, 2 mM EDTA, 25 C; EMSA (32P): 50 mM Tris-HCl pH 8.0, 5 mM EDTA, 1 mM DTT, 5% glycerol, 100 ug/ml BSA, on ice; EMSA (Cy520): PBS pH 7.4, room temp
experimental_conditions: protein: recombinant; tags: N-His6; chain copies: 2; label: 5'-Cy5 on strand 1; blunt
pKd: −log10 of the molar value.
endpoint: pKd

Prompt: Give its pKd value. Item: Cy520 (NinH consensus) (dsDNA) DNA 1: ACCGATCAAGAATTGTGCAT DNA 2: ATGCACAATTCTTGATCGGT
Response: > 6.00

Data provenance is paper PMC7166090.
